Tested on: Saccharomyces cerevisiae
experiment-notes: protein stability index of tFT-peptide fusion (C-terminal peptide) (PSI (0-1 scale)); higher = more stable (slower turnover)
assay-setup: genetic background: wild type; temperature: 30 C
Label scheme for protein stability index: lower than 0.7 is Not met, 0.7 and above is Met.

Worked cases, answers included:
[[record]]
sequence_entry = "APEEEAYKPNQN [KRR1 C-terminal 12 aa]"
category_label = "Not met"

[[record]]
sequence_entry = "ACFVFSPSAMVT [BRP1 C-terminal 12 aa]"
category_label = "Not met"


Enquiry: Decide: is the reported value of protein stability index for RNLLSTYHPMLM [YLR124W C-terminal 12 aa] equal to or greater than 0.7?
Return: Not met

Enquiry: Decide: is the reported value of protein stability index for SKKVICNTFGYN [DDI2 C-terminal 12 aa] equal to or greater than 0.7?
Return: Met

Enquiry: Decide: is the reported value of protein stability index for MGVVAAVGVALL [ECM33 C-terminal 12 aa] equal to or greater than 0.7?
Return: Not met

Enquiry: Decide: is the reported value of protein stability index for KKKQNDGKSLRS [DBP8 C-terminal 12 aa] equal to or greater than 0.7?
Return: Met

Enquiry: Decide: is the reported value of protein stability index for SSSGTSSSHLEL [APL6 C-terminal 12 aa] equal to or greater than 0.7?
Return: Not met

Enquiry: Decide: is the reported value of protein stability index for RPWYVRQFHFWC [TAT2 C-terminal 12 aa] equal to or greater than 0.7?
Return: Not met

Enquiry: Decide: is the reported value of protein stability index for TYRLLLRLHAQD [FAR7 C-terminal 12 aa] equal to or greater than 0.7?
Return: Not met

Enquiry: Decide: is the reported value of protein stability index for NSNKKKGFKSRR [DRS1 C-terminal 12 aa] equal to or greater than 0.7?
Return: Met

Enquiry: Decide: is the reported value of protein stability index for TRMNVSHYYIIT [YOL166C C-terminal 12 aa] equal to or greater than 0.7?
Return: Not met

Enquiry: Decide: is the reported value of protein stability index for GDIIKLRESVNA [YJL215C C-terminal 12 aa] equal to or greater than 0.7?
Return: Met

Enquiry: Decide: is the reported value of protein stability index for LFFQDIERFFSC [YMR194C-A C-terminal 12 aa] equal to or greater than 0.7?
Return: Met

Enquiry: Decide: is the reported value of protein stability index for YLKNYFKTKHII [ERV25 C-terminal 12 aa] equal to or greater than 0.7?
Return: Not met

Enquiry: Decide: is the reported value of protein stability index for RLKSSVICSGTS [YLR399W-A C-terminal 12 aa] equal to or greater than 0.7?
Return: Not met
